// IC50 lookup, one value per entry
# SYSTEM_NAME: IDO1 (Homo sapiens, UniProt P14902)
# Sequence (P14902 whole entry): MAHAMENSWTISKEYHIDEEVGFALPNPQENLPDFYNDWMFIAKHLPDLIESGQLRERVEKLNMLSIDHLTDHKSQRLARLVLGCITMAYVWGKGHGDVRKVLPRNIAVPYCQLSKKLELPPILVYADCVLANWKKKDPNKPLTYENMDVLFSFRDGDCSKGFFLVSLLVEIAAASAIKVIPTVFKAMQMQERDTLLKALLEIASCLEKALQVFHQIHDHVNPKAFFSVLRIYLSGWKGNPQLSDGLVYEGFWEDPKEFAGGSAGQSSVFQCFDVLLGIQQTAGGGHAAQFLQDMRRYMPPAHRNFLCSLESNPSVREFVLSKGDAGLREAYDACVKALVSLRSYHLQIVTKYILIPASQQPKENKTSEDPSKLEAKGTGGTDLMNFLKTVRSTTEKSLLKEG
# ASSAY_PROCEDURE: IDO1 Cellular Assay in HeLa Cells Stimulated with IFNγ
# Assay type: cell-based
# ASSAY_CONTEXT: about 48 hours, read-out: Hela IC50

MOLECULE	SYSTEM_NAME	IC50 [nM]
O=C(Nc1ccc(F)cc1)C(c1ccc2c(n1)CCCN2C(=O)C1CC1)C1CC1 (stereo not shown) [Example 260]	IDO1 (Homo sapiens, UniProt P14902)	34
CC(C)CC(=O)N1CCCc2cc(CC(=O)Nc3ccc(Cl)cc3)ccc21 [Example 35]	IDO1 (Homo sapiens, UniProt P14902)	6.9
C[C@@H](NC(=O)c1ccc(F)cc1)c1ccc2c(n1)CCCN2C(=O)[C@H]1CCOC1 [Example 131]	IDO1 (Homo sapiens, UniProt P14902)	356
O=C(Nc1ccc(F)cc1)C1(c2ccc3c(n2)CCN3c2ccccn2)CCC1 [Example 271]	IDO1 (Homo sapiens, UniProt P14902)	10.9
